Molecular target: NGly1 (Homo sapiens, UniProt Q96IV0)
Sequence (Q96IV0 whole entry): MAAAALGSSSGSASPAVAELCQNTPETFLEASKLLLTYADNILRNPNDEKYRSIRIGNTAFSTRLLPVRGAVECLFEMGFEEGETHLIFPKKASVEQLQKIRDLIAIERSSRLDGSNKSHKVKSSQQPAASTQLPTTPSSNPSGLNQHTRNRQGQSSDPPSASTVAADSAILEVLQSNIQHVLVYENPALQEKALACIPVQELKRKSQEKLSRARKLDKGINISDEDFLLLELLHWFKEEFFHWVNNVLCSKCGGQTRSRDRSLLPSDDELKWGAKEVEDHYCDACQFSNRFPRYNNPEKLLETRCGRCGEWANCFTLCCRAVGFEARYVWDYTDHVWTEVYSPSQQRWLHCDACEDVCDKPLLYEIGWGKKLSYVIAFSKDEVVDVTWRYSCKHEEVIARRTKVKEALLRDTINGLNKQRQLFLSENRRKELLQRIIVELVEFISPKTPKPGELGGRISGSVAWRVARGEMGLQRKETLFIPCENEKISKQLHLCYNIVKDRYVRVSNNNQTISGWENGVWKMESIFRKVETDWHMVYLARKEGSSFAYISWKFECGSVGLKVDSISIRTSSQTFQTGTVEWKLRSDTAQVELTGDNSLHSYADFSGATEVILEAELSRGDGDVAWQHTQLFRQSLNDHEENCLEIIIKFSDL
Assay: Cresswell assay (ddVenus fluorescence on deglycosylation by NGly1) in stably transfected K562 cells
Conditions: K562 ddVenus cells, read-out: IC50 (reduction of fluorescence)
Residues, ends and D or L forms follow the SMILES beside them. *: point of attachment. Cbz = O=C(OCc1ccccc1)*; CH2F = FC*
Listing: IC50 of selected compounds
Enter your answer as a number in µM; do not include the unit.

Compound: COC(=O)C[C@H](NC(=O)[C@H](C)NC(=O)[C@@H](NC(=O)OCc1ccccc1)C(C)C)C(=O)CF [Z-VAD-fmk] (Cbz-Val-Ala-Asp(OMe)-CH2F)
Experimental Target: NGly1 (Homo sapiens, UniProt Q96IV0)
Value Units: µM
IC50: 4.4

For the next question, use this compound.
// sample `Cc1ccc(S(=O)(=O)/C=C/C(=O)N[C@@H](CCc2ccccc2)C(=O)NCCC(C)C)cc1` , its IC50 was 5.5
